Origin of values: ChEMBL document CHEMBL3352709

molecular target: UniProtKB P50130; experiment: Displacement of [3H]SCH23390 from porcine striatal membranes D1 receptor by competitive binding assay
Sequence (P50130 whole entry): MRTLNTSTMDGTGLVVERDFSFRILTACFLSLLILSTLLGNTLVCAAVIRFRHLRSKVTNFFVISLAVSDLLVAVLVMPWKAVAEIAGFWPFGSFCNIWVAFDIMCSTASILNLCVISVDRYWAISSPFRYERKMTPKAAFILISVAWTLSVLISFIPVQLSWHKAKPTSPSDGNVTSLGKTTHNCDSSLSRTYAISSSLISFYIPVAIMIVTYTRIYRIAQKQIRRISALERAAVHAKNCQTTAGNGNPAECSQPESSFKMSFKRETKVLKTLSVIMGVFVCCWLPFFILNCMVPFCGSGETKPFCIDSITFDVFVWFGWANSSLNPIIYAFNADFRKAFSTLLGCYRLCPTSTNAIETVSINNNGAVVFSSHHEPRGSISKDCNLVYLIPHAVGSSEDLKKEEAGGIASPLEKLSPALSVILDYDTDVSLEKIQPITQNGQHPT
pKi: −log10 of the molar value.
measured endpoint: pKi

>>> result_value("O=C(CCCCCCCCCCCCCCC(=O)OC1(c2ccc(Cl)cc2)CCN(CCCC(=O)c2ccc(F)cc2)CC1)OC1(c2ccc(Cl)cc2)CCN(CCCC(=O)c2ccc(F)cc2)CC1")
5.17
>>> result_value("O=C(CCN1CCN(CCC(=O)OC2(c3ccc(Cl)cc3)CCN(CCCC(=O)c3ccc(F)cc3)CC2)CC1)OC1(c2ccc(Cl)cc2)CCN(CCCC(=O)c2ccc(F)cc2)CC1")
6.44
>>> result_value("O=C(CCCCCC(=O)OC1(c2ccc(Cl)cc2)CCN(CCCC(=O)c2ccc(F)cc2)CC1)OC1(c2ccc(Cl)cc2)CCN(CCCC(=O)c2ccc(F)cc2)CC1")
6.55
>>> result_value("O=C(CCCCCCCCCCCCCCCCCCCCC(=O)OC1(c2ccc(Cl)cc2)CCN(CCCC(=O)c2ccc(F)cc2)CC1)OC1(c2ccc(Cl)cc2)CCN(CCCC(=O)c2ccc(F)cc2)CC1")
5.82
>>> result_value("O=C(CCCCCCCC(=O)OC1(c2ccc(Cl)cc2)CCN(CCCC(=O)c2ccc(F)cc2)CC1)OC1(c2ccc(Cl)cc2)CCN(CCCC(=O)c2ccc(F)cc2)CC1")
5.92
>>> result_value("O=C(CCC(=O)OC1(c2ccc(Cl)cc2)CCN(CCCC(=O)c2ccc(F)cc2)CC1)OC1(c2ccc(Cl)cc2)CCN(CCCC(=O)c2ccc(F)cc2)CC1")
6.89
>>> result_value("O=C(CCc1cn(CCCCCCCCn2cc(CCC(=O)OC3(c4ccc(Cl)cc4)CCN(CCCC(=O)c4ccc(F)cc4)CC3)nn2)nn1)OC1(c2ccc(Cl)cc2)CCN(CCCC(=O)c2ccc(F)cc2)CC1")
7.31
>>> result_value("CCCCCCCCCC(=O)OC1(c2ccc(Cl)cc2)CCN(CCCC(=O)c2ccc(F)cc2)CC1 [HALOPERIDOL DECANOATE]")
6.85
>>> result_value("O=C(CCCCCCCCCCCCCCCCC(=O)OC1(c2ccc(Cl)cc2)CCN(CCCC(=O)c2ccc(F)cc2)CC1)OC1(c2ccc(Cl)cc2)CCN(CCCC(=O)c2ccc(F)cc2)CC1")
6.03
>>> result_value("O=C(CCCCCCCCCCCCCCCCCCC(=O)OC1(c2ccc(Cl)cc2)CCN(CCCC(=O)c2ccc(F)cc2)CC1)OC1(c2ccc(Cl)cc2)CCN(CCCC(=O)c2ccc(F)cc2)CC1")
5.85
>>> result_value("O=C(CCc1cn(CCOCCOCCOCCn2cc(CCC(=O)OC3(c4ccc(Cl)cc4)CCN(CCCC(=O)c4ccc(F)cc4)CC3)nn2)nn1)OC1(c2ccc(Cl)cc2)CCN(CCCC(=O)c2ccc(F)cc2)CC1")
6.92
>>> result_value("CCC(=O)OC1(c2ccc(Cl)cc2)CCN(CCCC(=O)c2ccc(F)cc2)CC1")
7.14
